Below, each entry is listed with its recorded half-life at 30000 µM.
Experiment: Degradation half life of the compound at 30 mM at pH 7.2
Format: physicochemical
Conditions: buffer
Give the figure together with its unit, number first.

CC(C)(C)CC(=O)N1CCC([C@H](N)C(=O)N2[C@H](C#N)C[C@@H]3C[C@@H]32)CC1 | 38.4 h

Can you look up the measured half-life at 30000 µM of CCC1([C@H](N)C(=O)N2[C@H](C#N)C[C@@H]3C[C@@H]32)CCN(C(=O)CC(C)(C)C)CC1 for me?
245 h

====

Below, each entry is listed with its recorded half-life at 10000 µM.
Assay: Degradation half life of the compound at 10 mM at pH 7.2
Format: physicochemical
Settings: buffer
Please give a number only; it is taken to be in days.

CCC1([C@H](N)C(=O)N2[C@H](C#N)C[C@@H]3C[C@@H]32)CCN(C(=O)CC(C)(C)C)CC1 | 19.7

Alright, here's another molecule for you.
Can you look up the measured half-life at 10000 µM of CC(C)(C)CC(=O)N1CCC([C@H](N)C(=O)N2[C@H](C#N)C[C@@H]3C[C@@H]32)CC1 for me?
2

====

Below, each entry is listed with its recorded half-life at 50000 µM.
Experiment: Degradation half life of the compound at 50 mM at pH 7.2
Type: physicochemical
Details: buffer
Please give a number only; it is taken to be in h.

Can you look up the measured half-life at 50000 µM of CC(C)(C)CC(=O)N1CCC([C@H](N)C(=O)N2[C@H](C#N)C[C@@H]3C[C@@H]32)CC1 for me?
38.4

Another compound to check: CCC1([C@H](N)C(=O)N2[C@H](C#N)C[C@@H]3C[C@@H]32)CCN(C(=O)CC(C)(C)C)CC1
192

Measured values drawn from ChEMBL document CHEMBL2331330 for this set.
